- study_target: Human PD-L1/PD-1 (Homo sapiens, UniProt Q9NZQ7)
- Construct: made in house; host or cells: HEK293T
- Sequence (Q9NZQ7 with tags, fused parts or gaps): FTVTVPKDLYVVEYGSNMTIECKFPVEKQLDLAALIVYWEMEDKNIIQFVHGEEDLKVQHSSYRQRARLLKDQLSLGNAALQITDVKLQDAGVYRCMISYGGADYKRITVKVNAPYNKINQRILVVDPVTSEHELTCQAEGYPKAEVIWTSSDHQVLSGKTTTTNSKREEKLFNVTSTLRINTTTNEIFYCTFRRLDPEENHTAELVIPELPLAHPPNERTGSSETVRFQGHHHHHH
- experiment_description: HTRF PD-1-Ig/PD-L1-His binding assay (human PD-L1)
- details: cluster symbol; read-out: HTRF IC50 cluster
pIC50: −log10 of the molar value. Positions of bridges follow the written chain, without caps; N, C: chain ends. Non-standard residues stand in square brackets, D forms with d. Residues, ends and D or L forms follow the SMILES beside them. Hyp = O=C(O)[C@@H]1C[C@@H](O)CN1; NMeNle = CCCC[C@H](NC)C(=O)O; NMeA = CN[C@@H](C)C(=O)O
recorded_metric: pIC50

Input: # pIC50 lookup, item CCCC[C@H]1C(=O)N(C)[C@@H](CCCC)C(=O)N[C@@H](CO)C(=O)N[C@H](C(=O)NCC(N)=O)CSCC(=O)N[C@@H](Cc2ccc(O)cc2)C(=O)N(C)[C@@H](C)C(=O)N[C@@H](CO)C(=O)N2CCC[C@H]2C(=O)N[C@@H](CO)C(=O)N[C@@H](CO)C(=O)N2C[C@H](O)C[C@H]2C(=O)N[C@@H](Cc2c[nH]c3ccccc23)C(=O)N[C@@H](CO)C(=O)N[C@@H](Cc2c[nH]c3ccccc23)C(=O)N1C [Example 5135] ({CH2CO}-Y[NMeA]SPSS[Hyp]WSW[NMeNle][NMeNle]SCG-NH2; thioether N-14)
Output: 7.52 to 8.17

* * *

- study_target: LK35.2-hPD-L1 cells / PE-labeled PD-1-Ig (Homo sapiens, UniProt Q9NZQ7)
- Construct: expressed in transfected cells; host or cells: LK35.2 mouse B cell line
- Sequence (Q9NZQ7 19-290): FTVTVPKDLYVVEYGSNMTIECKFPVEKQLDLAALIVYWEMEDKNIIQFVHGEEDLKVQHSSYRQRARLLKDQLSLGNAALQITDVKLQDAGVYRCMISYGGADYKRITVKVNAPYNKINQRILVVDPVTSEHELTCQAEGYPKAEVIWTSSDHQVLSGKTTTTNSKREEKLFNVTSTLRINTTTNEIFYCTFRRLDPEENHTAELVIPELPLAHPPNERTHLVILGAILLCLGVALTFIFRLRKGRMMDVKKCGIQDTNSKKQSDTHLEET
- experiment_description: LK35.2-hPD-L1 cell binding high-content screening assay
- Assay type: cell-based
- details: cell line of CBA not given (LK35.2-hPD-L1 or 293T-hPD-L1); read-out: CBA IC50 value
Positions of bridges follow the written chain, without caps; N, C: chain ends. Non-standard residues stand in square brackets, D forms with d. Residues, ends and D or L forms follow the SMILES beside them. Trp(5-OH) = N[C@@H](Cc1c[nH]c2ccc(O)cc12)C(=O)O; Bta = N[C@@H](Cc1csc2ccccc12)C(=O)O; Hyp = O=C(O)[C@@H]1C[C@@H](O)CN1; NMeF = CN[C@@H](Cc1ccccc1)C(=O)O; NMeNle = CCCC[C@H](NC)C(=O)O; NMeA = CN[C@@H](C)C(=O)O; Dap = NC[C@H](N)C(=O)O; Sar = CNCC(=O)O
recorded_metric: pIC50
Formally, pIC50 is defined as -log10 of the concentration c, with c in mol/L.

1. CCCC[C@H]1C(=O)N(C)[C@@H](CCCC)C(=O)N[C@@H](CN)C(=O)N[C@H](C(=O)NCC(N)=O)CSCC(=O)N[C@@H](Cc2ccc(O)cc2)C(=O)N(C)[C@@H](C)C(=O)N[C@@H](CC(=O)O)C(=O)N2CCC[C@H]2C(=O)N[C@@H](CN)C(=O)N[C@@H](CC(C)C)C(=O)N2C[C@H](O)C[C@H]2C(=O)N[C@@H](Cc2c[nH]c3ccccc23)C(=O)N[C@@H](CO)C(=O)N[C@@H](Cc2csc3ccccc23)C(=O)N1C [Example 1163] ({CH2CO}-Y[NMeA]DP[Dap]L[Hyp]WS[Bta][NMeNle][NMeNle][Dap]CG-NH2; thioether N-14)    8.39

Please turn your attention to the following entry.
Input: # query: pIC50 | item CCCC[C@H]1C(=O)N(C)CC(=O)N[C@@H](CC(=O)O)C(=O)N[C@@H](C(C)C)C(=O)N(C)[C@@H](Cc2ccccc2)C(=O)N[C@@H](Cc2ccc(O)cc2)C(=O)N(C)CC(=O)N[C@@H](Cc2c[nH]c3ccc(O)cc23)C(=O)N[C@@H](Cc2ccc(O)cc2)C(=O)N[C@@H](CC(C)C)C(=O)N[C@H](C(=O)NCC(N)=O)CSCC(=O)N[C@@H](Cc2ccccc2)C(=O)N(C)[C@@H](Cc2ccccc2)C(=O)N1C [Example 3147] ({CH2CO}-F[NMeF][NMeNle][Sar]DV[NMeF]Y[Sar][Trp(5-OH)]YLCG-NH2; thioether N-13) | system: LK35.2-hPD-L1 cells / PE-labeled PD-1-Ig (Homo sapiens, UniProt Q9NZQ7)
Output: 5.76

* * *

- study_target: LK35.2-hPD-L1 cells / PE-labeled PD-1-Ig (Homo sapiens)
- Construct: expressed in transfected cells; host or cells: LK35.2 mouse B cell line
- experiment_description: LK35.2-hPD-L1 cell binding high-content screening assay
- Format: cell-based
- details: cluster symbol; cell line of CBA not given (LK35.2-hPD-L1 or 293T-hPD-L1); read-out: CBA IC50 cluster
pIC50: −log10 of the molar value. Positions of bridges follow the written chain, without caps; N, C: chain ends. Non-standard residues stand in square brackets, D forms with d. Residues, ends and D or L forms follow the SMILES beside them. Phe(4-CH2NH2) = NCc1ccc(C[C@H](N)C(=O)O)cc1; Phe(4-Cl) = N[C@@H](Cc1ccc(Cl)cc1)C(=O)O; Phe(4-F) = N[C@@H](Cc1ccc(F)cc1)C(=O)O; Bta = N[C@@H](Cc1csc2ccccc12)C(=O)O; NMeF = CN[C@@H](Cc1ccccc1)C(=O)O; NMeNle = CCCC[C@H](NC)C(=O)O; Sar = CNCC(=O)O
recorded_metric: pIC50

Input: # query: pIC50 | item CCCC[C@H]1C(=O)N(C)[C@@H](CCCC)C(=O)N[C@@H](CCCN)C(=O)N[C@H](C(=O)NCC(N)=O)CSCC(=O)N[C@@H](Cc2ccc(O)cc2)C(=O)N2CC[C@H]2C(=O)N[C@@H](CC(N)=O)C(=O)N2CCC[C@H]2C(=O)N[C@@H](Cc2cnc[nH]2)C(=O)N[C@@H](CC(C)C)C(=O)N2C[C@H](O)C[C@H]2C(=O)N[C@@H](Cc2c[nH]c3ccccc23)C(=O)N[C@@H](CO)C(=O)N[C@@H](Cc2c[nH]c3ccccc23)C(=O)N1C | system: LK35.2-hPD-L1 cells / PE-labeled PD-1-Ig (Homo sapiens)
Output: 7.14 to 8.32

Input: # query: pIC50 | item CCCC[C@H]1C(=O)N(C)CC(=O)N[C@@H](CC(=O)O)C(=O)N[C@@H](C(C)C)C(=O)N(C)[C@@H](Cc2ccccc2)C(=O)N[C@@H](Cc2ccc(O)cc2)C(=O)N(C)CC(=O)N[C@@H](Cc2csc3ccccc23)C(=O)N[C@@H](Cc2ccc(O)cc2)C(=O)N[C@@H](CC(C)C)C(=O)N[C@H](C(=O)NCC(N)=O)CSCC(=O)N[C@@H](Cc2ccc(Cl)cc2)C(=O)N(C)[C@@H](Cc2ccccc2)C(=O)N1C [Example 3115] ({CH2CO}-[Phe(4-Cl)][NMeF][NMeNle][Sar]DV[NMeF]Y[Sar][Bta]YLCG-NH2; thioether N-13) | system: LK35.2-hPD-L1 cells / PE-labeled PD-1-Ig (Homo sapiens)
Output: 7.14 to 8.32

Input: # query: pIC50 | item CCCC[C@H]1C(=O)N(C)CC(=O)N[C@@H](CC(=O)O)C(=O)N[C@@H](C(C)C)C(=O)N(C)[C@@H](Cc2ccccc2)C(=O)N[C@@H](Cc2ccc(O)cc2)C(=O)N(C)CC(=O)N[C@@H](Cc2c[nH]c3ccccc23)C(=O)N[C@@H](Cc2ccc(O)cc2)C(=O)N[C@@H](CC(C)C)C(=O)N[C@H](C(=O)NCC(N)=O)CSCC(=O)N[C@@H](Cc2ccc(CN)cc2)C(=O)N(C)[C@@H](Cc2ccccc2)C(=O)N1C [Example 3063] ({CH2CO}-[Phe(4-CH2NH2)][NMeF][NMeNle][Sar]DV[NMeF]Y[Sar]WYLCG-NH2; thioether N-13) | system: LK35.2-hPD-L1 cells / PE-labeled PD-1-Ig (Homo sapiens)
Output: < 7.13

Input: # query: pIC50 | item CCCC[C@H]1C(=O)N(C)CC(=O)N[C@@H](CC(=O)O)C(=O)N[C@@H](C(C)C)C(=O)N(C)[C@@H](Cc2ccccc2)C(=O)N[C@@H](Cc2ccc(O)cc2)C(=O)N(C)CC(=O)N[C@@H](Cc2c[nH]c3ccccc23)C(=O)N[C@@H](Cc2ccc(F)cc2)C(=O)N[C@@H](CC(C)C)C(=O)N[C@H](C(=O)NCC(N)=O)CSCC(=O)N[C@@H](Cc2ccccc2)C(=O)N(C)[C@@H](Cc2ccccc2)C(=O)N1C [Example 3076] ({CH2CO}-F[NMeF][NMeNle][Sar]DV[NMeF]Y[Sar]W[Phe(4-F)]LCG-NH2; thioether N-13) | system: LK35.2-hPD-L1 cells / PE-labeled PD-1-Ig (Homo sapiens)
Output: 7.14 to 8.32

* * *

- study_target: LK35.2-hPD-L1 cells / PE-labeled PD-1-Ig (Homo sapiens, UniProt Q9NZQ7)
- Construct: expressed in transfected cells; host or cells: LK35.2 mouse B cell line
- experiment_description: LK35.2-hPD-L1 cell binding high-content screening assay
- Format: cell-based
- details: cell binding assay, cell line not given; cluster symbol; read-out: CBA IC50 cluster
Positions of bridges follow the written chain, without caps; N, C: chain ends. Non-standard residues stand in square brackets, D forms with d. Residues, ends and D or L forms follow the SMILES beside them. NMeNle = CCCC[C@H](NC)C(=O)O; NMeA = CN[C@@H](C)C(=O)O; Dap = NC[C@H](N)C(=O)O; Sar = CNCC(=O)O
recorded_metric: IC50

Input: # IC50 lookup, item CCCC[C@H]1C(=O)N(C)[C@@H](CCCC)C(=O)N[C@@H](CCCNC(=N)N)C(=O)N[C@H](C(=O)NCC(N)=O)CSCC(=O)N[C@@H](Cc2ccccc2)C(=O)N(C)[C@@H](C)C(=O)N[C@@H](CC(N)=O)C(=O)N2CCC[C@H]2C(=O)N[C@@H](Cc2cnc[nH]2)C(=O)N[C@@H](CC(C)C)C(=O)N(C)CC(=O)N[C@@H](Cc2c[nH]c3ccccc23)C(=O)N[C@@H](CN)C(=O)N[C@@H](Cc2c[nH]c3ccccc23)C(=O)N1C [Example 5002] ({CH2CO}-F[NMeA]NPHL[Sar]W[Dap]W[NMeNle][NMeNle]RCG-NH2; thioether N-14)
Output: > 74.3 nM

Entry source: patent US9850283B2
